Molecular target: rat mGluR5 (Rattus norvegicus, UniProt P31424)
Sequence (P31424 21-1171 isoform P31424-2 limits assumed): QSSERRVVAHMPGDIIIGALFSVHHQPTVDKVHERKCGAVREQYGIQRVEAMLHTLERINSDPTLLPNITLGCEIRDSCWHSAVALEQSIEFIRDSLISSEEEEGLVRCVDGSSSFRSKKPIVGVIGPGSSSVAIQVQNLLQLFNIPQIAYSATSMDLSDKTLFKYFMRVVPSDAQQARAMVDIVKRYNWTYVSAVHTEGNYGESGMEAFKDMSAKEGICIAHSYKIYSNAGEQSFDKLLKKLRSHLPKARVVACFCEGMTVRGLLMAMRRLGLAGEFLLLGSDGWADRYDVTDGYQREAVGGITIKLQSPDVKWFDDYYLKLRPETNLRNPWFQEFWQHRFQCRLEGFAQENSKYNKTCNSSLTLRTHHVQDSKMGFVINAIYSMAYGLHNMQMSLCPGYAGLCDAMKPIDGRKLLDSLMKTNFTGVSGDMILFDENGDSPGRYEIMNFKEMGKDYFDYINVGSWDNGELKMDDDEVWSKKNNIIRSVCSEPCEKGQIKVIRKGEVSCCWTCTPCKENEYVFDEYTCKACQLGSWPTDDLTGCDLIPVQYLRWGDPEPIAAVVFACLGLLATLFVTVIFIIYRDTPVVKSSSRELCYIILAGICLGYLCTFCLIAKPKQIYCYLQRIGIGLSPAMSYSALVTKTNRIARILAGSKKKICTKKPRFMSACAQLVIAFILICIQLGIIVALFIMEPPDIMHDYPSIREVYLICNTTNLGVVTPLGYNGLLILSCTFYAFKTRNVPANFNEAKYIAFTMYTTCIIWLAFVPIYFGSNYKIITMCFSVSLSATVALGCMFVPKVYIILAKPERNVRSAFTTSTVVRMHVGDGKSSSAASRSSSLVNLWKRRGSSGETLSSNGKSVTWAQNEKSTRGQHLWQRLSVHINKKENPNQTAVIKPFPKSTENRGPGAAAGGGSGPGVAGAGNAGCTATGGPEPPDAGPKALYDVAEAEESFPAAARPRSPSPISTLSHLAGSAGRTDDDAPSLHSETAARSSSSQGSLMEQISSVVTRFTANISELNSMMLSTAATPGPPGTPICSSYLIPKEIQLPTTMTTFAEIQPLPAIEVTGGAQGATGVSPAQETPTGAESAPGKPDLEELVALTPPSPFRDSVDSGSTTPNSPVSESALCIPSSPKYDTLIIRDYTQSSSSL
Test: mGluR5 assay on HEK-expressing rat mGluR5 (fluorescent cell based Ca2+ mobilization assay)
Conditions: HEK-293 cells stably expressing rat mGluR5; no co-addition of glutamate; mean of at least three independent experiments in duplicate; read-out: Ca++ Flux (mean EC50)
Experimental: mGluR5 Assay on HEK-Expressing Rat mGluR5 Positive functional expression of HEK-293 cells stably expressing rat mGluR5 receptor was determined by measuring intracellular Ca^2+ changes using a Fluorometric Imaging Plate Reader (FLIPR, Molecular Devices, Sunnyvale, Calif.) in response to glutamate or selective known mGluR5 agonists and antagonists. Rat mGluR5 RT-PCR products in HEK-293 cells were sequenced and found 100% identical to rat mGluR5 Genbank reference sequence (NM_017012). […]
pEC50: −log10 of the molar value.
Please go through the items and note down their pEC50.

[in] I would be grateful if you could share the reported pEC50 for Cc1oncc1C(=O)N1CCC[C@H](c2nc(-c3ccccc3)no2)C1 .
[out] > 6.00

[in] Also check Cn1cccc1-c1noc([C@H]2CCCN(C(=O)c3ccc(F)cc3)C2)n1
[out] 5.00 to 6.00

[in] Also check Cc1cc(F)ccc1C(=O)N1CCC[C@H](c2nc(-c3ccncc3)no2)C1
[out] 5.00 to 6.00

[in] Also check Cc1cc(F)ccc1C(=O)N1CCC[C@H](c2nc(-c3ccccc3F)no2)C1
[out] 5.00 to 6.00

[in] Also check COc1ccsc1C(=O)N1CCC[C@H](c2nc(-c3ccc(F)cc3)no2)C1
[out] < 5.00

---

Please go through the items and note down their melting point.

[in] I would be grateful if you could share the reported melting point for O=C(c1ccnc(F)c1)N1CCC[C@H](c2nc(-c3ccc(F)cc3)no2)C1 .
[out] 93 to 95 °C

[in] Also check O=C(c1cccc2c1OCCO2)N1CCC[C@H](c2nc(-c3ccc(F)cc3)no2)C1
[out] 57 to 60 °C

[in] Also check Cc1cc(C(=O)N2CCC[C@H](c3nc(-c4ccc(F)cc4)no3)C2)c(C)o1
[out] 114 to 118 °C

[in] Also check Cc1cc(C(=O)N2CCC[C@H](c3nc(-c4ccc(F)cc4)no3)C2)c(C)n1C
[out] 122 to 126 °C

[in] Also check O=C(c1ccc(F)c(F)c1)N1CCC[C@H](c2nc(-c3ccsc3)no2)C1
[out] 92 to 97 °C

---

biological target: rat mGluR5 (Rattus norvegicus, UniProt P31424); test: mGluR5 assay on HEK-expressing rat mGluR5 (fluorescent cell based Ca2+ mobilization assay); details: HEK-293 cells stably expressing rat mGluR5; no co-addition of glutamate; mean of at least three independent experiments in duplicate; read-out: Ca++ Flux (mean EC50)
pEC50: −log10 of the molar value. Structures can show the parent of a compound that is named as a salt.
measured attribute: pEC50

[in] I would be grateful if you could share the reported pEC50 for Cc1cc(C(=O)N2CCC[C@H](c3nc(-c4ccc(F)cc4)no3)C2)c(C)o1 [Example 23] .
[out] > 6.00

[in] Also check O=C(c1cccnc1F)N1CCC[C@H](c2nc(-c3ccc(F)cc3)no2)C1 [Example 14]
[out] 5.00 to 6.00

[in] Also check COc1cc(C(=O)N2CCC[C@H](c3nc(-c4ccc(F)cc4)no3)C2)ccc1F [Example 26]
[out] 5.00 to 6.00

[in] Also check O=C(c1ccc(F)cc1F)N1CCC[C@H](c2nc(-c3ccc(F)cc3F)no2)C1 [Example 69]
[out] 5.00 to 6.00

[in] Also check Cc1cccnc1-c1noc([C@H]2CCCN(C(=O)c3ccc(F)cc3)C2)n1 [Example 40]
[out] < 5.00

[in] Also check O=C(c1ccc(F)c(F)c1)N1CCC[C@H](c2nc(-c3ccncc3)no2)C1 [Example 52]
[out] > 6.00

[in] Also check Cc1oncc1C(=O)N1CCC[C@H](c2nc(-c3ccc(F)cc3)no2)C1 [Example 5]
[out] > 6.00

[in] Also check Cc1ccccc1C(=O)N1CCC[C@H](c2nc(-c3ccc(F)cc3)no2)C1 [Example 19]
[out] 5.00 to 6.00

[in] Also check O=C(c1ccccn1)N1CCC[C@H](c2nc(-c3ccc(F)cc3)no2)C1 [Example 15, hydrochloride]
[out] 5.00 to 6.00

[in] Also check O=C(c1cccc2c1OCCO2)N1CCC[C@H](c2nc(-c3ccc(F)cc3)no2)C1 [Example 25]
[out] 5.00 to 6.00

[in] Also check Cc1cnccc1C(=O)N1CCC[C@H](c2nc(-c3ccc(F)cc3)no2)C1 [Example 27]
[out] 5.00 to 6.00

[in] Also check O=C(c1ccc(F)cc1F)N1CCC[C@H](c2nc(-c3ccccc3)no2)C1 [Example 59]
[out] > 6.00

[in] Also check O=C(c1ccsc1Br)N1CCC[C@H](c2nc(-c3ccc(F)cc3)no2)C1 [Example 28]
[out] 5.00 to 6.00

[in] Also check O=C(c1ccc(F)cc1F)N1CCC[C@H](c2nc(-c3ccccc3F)no2)C1 [Example 60]
[out] > 6.00

[in] Also check Cc1occc1C(=O)N1CCC[C@H](c2nc(-c3ccc(F)cc3)no2)C1 [Example 24]
[out] 5.00 to 6.00

[in] Also check O=C(c1ccc(F)nc1)N1CCC[C@H](c2nc(-c3ccc(F)cc3F)no2)C1 [Example 66]
[out] > 6.00

[in] Also check N#Cc1cc(C(=O)N2CCC[C@H](c3nc(-c4ccc(F)cc4)no3)C2)ccc1F [Example 3]
[out] 5.00 to 6.00

[in] Also check Cc1ncc(-c2noc([C@H]3CCCN(C(=O)c4ccc(F)cc4)C3)n2)s1 [Example 72]
[out] 5.00 to 6.00

[in] Also check Cc1ccccc1-c1noc([C@H]2CCCN(C(=O)c3ccc(F)cc3)C2)n1 [Example 48]
[out] < 5.00

[in] Also check O=C(c1ccc(F)nc1)N1CCC[C@H](c2nc(-c3ccccc3)no2)C1 [Example 62]
[out] > 6.00
